System: Candida albicans
METHOD SUMMARY: Binding affinity to Candida albicans CaMdr1p expressed in yeast AD1-8u
Calls of active or inactive are those of the source. No rule for the calls is given here.
Your response should consist of one outcome taken from active, inactive

COC(=O)C1=C(C)NC(C)=C(C(=O)OC)C1c1ccccc1[N+](=O)[O-]
inactive
CCC[C@@H]1C[C@@H](C(=O)N[C@@H]([C@H]2O[C@H](SC)[C@H](O)[C@@H](O)[C@H]2O)[C@@H](C)O)N(C)C1
inactive

Shift focus to the following entry.
Qu. For `C[C@@H](c1ncncc1F)[C@](O)(Cn1cncn1)c1ccc(F)cc1F` , what call appears in the results of this test?
Ans. active
